Tested on: RSK2(Kin.Dom.2-C-terminal)
Construct: gene RPS6KA3
Experimental setup: concentration: 1 μM, replicates: in singlicate; n = 1;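 further: KINOMEscan kinase panel screen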
So I've got a bunch of compounds here, and I need their %Inh values.
Answers are plain numbers, in %.

Report %Inh for each item below.
1. O=c1[nH]cc(-c2ccc(N3CCOCC3)cc2)c2sc(-c3cn[nH]c3)cc12 [GSK2276055]
2. COc1cccc(C(=O)Nc2cccc(Oc3ccc4nc(NC(=O)C5CC5)cn4n3)c2)c1
3. CN1CCN(CCCNc2nccc(-c3c(-c4ccc(F)cc4)nn4cc(C(F)(F)F)ccc34)n2)CC1 [GW621581]
4. CN(C)Cc1ccc(-c2ccc3c(Nc4ccc(Oc5ccccn5)cc4)ccnc3c2)o1 [GW567148]

Result ::
1. 7
2. 0
3. 17
4. 0

====

Test system: MST2
Construct: gene STK3
Experimental setup: concentration: 1 μM, replicates: in singlicate; n = 1
So I've got a bunch of compounds here, and I need their %Inh values.
Give bare numbers, in %.

Here is how some compounds turned out for %Inh.
{"Test smiles": "c1ccc(Oc2ccc(Nc3ccnc4cc(-c5ccc(CNCCN6CCOCC6)o5)ccc34)cc2)nc1", "Property": "%Inh", "Quantitative result": 0}
{"Test smiles": "COc1cccc(C(=O)Nc2cccc(Oc3ccc4nc(NC(=O)C5CC5)cn4n3)c2)c1", "Property": "%Inh", "Quantitative result": 0}
{"Test smiles": "Cc1ccc(C(=O)Nc2ccc(Nc3ccnc4cc(-c5nccs5)ccc34)cc2O)cc1.Cl", "Property": "%Inh", "Quantitative result": 5}

Below: the item to evaluate.
Query :: Sample Cl.NC(=O)c1cccc(Nc2nccc(Nc3ccc(Oc4c(Cl)cccc4Cl)c(Cl)c3)n2)c1 — what was its %Inh?
Result :: 11

====

System: NEK1
Experimental setup: concentration: 1 μM, replicates: in singlicate; n = 1
Property: %Inh (%)
Answers are plain numbers, in %.

Here is how some molecules turned out for %Inh.
{"Molecule": "Cl.c1ccc(-c2ccc3c(Nc4ccc5[nH]ncc5c4)ccnc3c2)nc1 [GW440137]", "Endpoint unit": "%", "Quantitative result": 0}
{"Molecule": "Oc1cc(Nc2ccnc3cc(I)ccc23)ccc1F [GW552771]", "Endpoint unit": "%", "Quantitative result": 0}
{"Molecule": "Clc1ccc(-c2nn3ncccc3c2-c2ccnc(Nc3ccc4c(c3)OCCO4)n2)cc1 [GW829116]", "Endpoint unit": "%", "Quantitative result": 0}
{"Molecule": "COc1cc(Nc2ncc3c(C)nc(-c4cc5ccccc5[nH]4)n3n2)cc(OC)c1OC [GW869516]", "Endpoint unit": "%", "Quantitative result": 16}

Report %Inh for each item below.
1. Cn1cc(-c2ccc3c(c2)CCN3C(=O)Cc2cccc(F)c2)c2c(N)ncnc21 [GSK2603358]
2. O=C(Nc1ccccc1F)NC1CCN(c2ccnc(Nc3ccc(F)cc3)n2)CC1 [GSK1379800]
3. Cc1ccc(C(=O)Nc2ccc(Nc3ccnc4cc(-c5nccs5)ccc34)cc2O)cc1.Cl [GW494702]
4. O=c1[nH]cc(-c2ccc(N3CCOCC3)cc2)c2sc(-c3cn[nH]c3)cc12 [GSK2276055]
5. O=C(Nc1cccc(Oc2ccc3nc(NC(=O)C4CC4)cn3n2)c1)c1ccccc1C(F)(F)F

Result ::
1. 31
2. 0
3. 0
4. 19
5. 9
